Each entry below carries its reported IC50.
- Target: system Xc^− (Homo sapiens, UniProt Q9UPY5)
- Sequence (Q9UPY5 whole entry): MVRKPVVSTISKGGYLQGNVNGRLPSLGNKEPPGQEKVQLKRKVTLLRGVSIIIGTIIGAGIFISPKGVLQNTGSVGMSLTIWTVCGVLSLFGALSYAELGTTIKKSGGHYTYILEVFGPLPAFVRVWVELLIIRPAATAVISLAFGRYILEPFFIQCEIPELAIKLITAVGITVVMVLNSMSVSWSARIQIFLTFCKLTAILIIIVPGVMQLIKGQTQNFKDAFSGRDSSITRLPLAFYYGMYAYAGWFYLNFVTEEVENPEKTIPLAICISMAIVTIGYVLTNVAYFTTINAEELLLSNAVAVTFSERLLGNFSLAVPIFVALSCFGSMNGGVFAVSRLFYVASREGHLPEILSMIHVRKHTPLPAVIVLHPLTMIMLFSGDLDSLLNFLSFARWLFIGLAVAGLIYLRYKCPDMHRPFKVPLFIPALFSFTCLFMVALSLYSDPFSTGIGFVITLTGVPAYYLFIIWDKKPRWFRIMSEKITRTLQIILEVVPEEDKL
- Sequence (P08195 102-630 partner): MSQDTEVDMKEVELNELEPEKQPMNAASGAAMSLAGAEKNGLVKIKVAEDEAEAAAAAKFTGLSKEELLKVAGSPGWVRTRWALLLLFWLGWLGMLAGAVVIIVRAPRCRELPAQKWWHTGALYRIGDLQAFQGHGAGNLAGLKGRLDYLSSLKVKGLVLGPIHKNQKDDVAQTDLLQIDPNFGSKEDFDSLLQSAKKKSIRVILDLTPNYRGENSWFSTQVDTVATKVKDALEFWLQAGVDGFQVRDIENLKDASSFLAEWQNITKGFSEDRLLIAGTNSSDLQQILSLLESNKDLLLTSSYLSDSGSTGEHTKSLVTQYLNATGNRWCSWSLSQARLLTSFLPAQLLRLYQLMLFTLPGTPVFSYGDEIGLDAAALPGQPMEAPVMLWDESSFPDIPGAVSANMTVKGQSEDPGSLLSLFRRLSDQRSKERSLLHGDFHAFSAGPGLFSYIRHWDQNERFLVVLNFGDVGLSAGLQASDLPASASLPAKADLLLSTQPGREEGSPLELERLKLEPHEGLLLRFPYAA
- Test method notes: [^14C]L-Cystine uptake assay
- Assay type: cell-based
- Parameters: endogenous in cells; host or cells: H4 cells
- Condition summary: H4 cells, sodium-free HEPES buffer, 0.5 μM L-[14C]Cystine and 4.5 μM L-Cystine, 1 hour at 37° C.; read-out: pIC50 [^14C] L-Cystine uptake assay (converted)
Readout kind: IC50

molecule=Cc1cc2c(c(Cl)n1)-c1ccccc1CC(=O)N2CC(=O)Nc1ccc(C(F)(F)F)cc1 reported_value="< 15.8 nM"
molecule="Cc1cc2c(c(Cl)n1)-c1cccnc1C(C)C(=O)N2CC(=O)Nc1cc(F)c(Cl)cc1F (single isomer, unassigned)" reported_value="15.8 to 39.8 nM"
molecule="CC1C(=O)N(CC(=O)Nc2ccc(C(F)F)cc2)c2cc(N3CC(C)(O)C3)nc(F)c2-c2cccnc21 (single isomer, unassigned)" reported_value="< 15.8 nM"
molecule="Cc1cc2c(c(F)n1)-c1cc(F)ccc1C(C)C(=O)N2CC(=O)Nc1ccc(Cl)c(F)c1 (single isomer, unassigned)" reported_value="< 15.8 nM"
molecule=O=C(CN1C(=O)Cc2cc(F)ccc2-c2c1ccnc2Cl)Nc1ccc(C(F)(F)F)cc1 reported_value="< 15.8 nM"
molecule="CC1C(=O)N(CC(=O)Nc2ccc(Cl)c(F)c2)c2cc(N3CC(F)(F)C3)nc(F)c2-c2cccnc21 (single isomer, unassigned)" reported_value="< 15.8 nM"
molecule=COc1ncc2c(c1C)-c1cccnc1CC(=O)N2CC(=O)Nc1ccc(C(F)(F)F)cc1 reported_value="100 to 501 nM"
molecule="Cc1cc2c(c(=O)o1)-c1ccccc1C(C)C(=O)N2CC(=O)Nc1ccc(C(F)F)cc1 (single isomer, unassigned)" reported_value="15.8 to 39.8 nM"
molecule=Cc1cc2c(c(F)n1)-c1cccnc1[C@@H](C)C(=O)N2CC(=O)Nc1ccc(Cl)cc1F reported_value="39.8 to 100 nM"
molecule="Cc1cc2c(c(=O)o1)-c1cccnc1C(C)C(=O)N2CC(=O)Nc1ccc(C(F)F)cc1 (single isomer, unassigned)" reported_value="39.8 to 100 nM"
molecule="Cc1cc2c(c(=O)n1C)-c1cccnc1C(C)C(=O)N2CC(=O)Nc1ccc(Cl)c(F)c1 (centres unmarked)" reported_value="< 15.8 nM"
molecule="COCCOc1nc(C)cc2c1-c1cccnc1C(C)C(=O)N2CC(=O)Nc1ccc(C(F)(F)F)cc1 (single isomer, unassigned)" reported_value="15.8 to 39.8 nM"
molecule="CO[C@H]1C(=O)N(CC(=O)Nc2ccc(C(F)(F)F)cc2)c2cc(C)nc(Cl)c2-c2ccccc21 (single isomer, unassigned)" reported_value="< 15.8 nM"
molecule=Cc1cc2c(cn1)-c1cc(C)c(C)cc1N(CC(=O)Nc1ccc(C(F)(F)F)cc1)C(=O)C2 reported_value="39.8 to 100 nM"
molecule="CC1C(=O)N(CC(=O)Nc2ccc(Cl)c(F)c2)c2cc(F)cc(F)c2-c2cccnc21 (single isomer, unassigned)" reported_value="15.8 to 39.8 nM"
molecule="Cc1cc2c(c(Cl)n1)-c1cccnc1C(C)C(=O)N2CC(=O)Nc1ccc(C(F)(F)F)nc1 (single isomer, unassigned)" reported_value="< 15.8 nM"
molecule=Cc1cc2c(c(F)n1)-c1cccnc1[C@@H](C)C(=O)N2CC(=O)Nc1ccc2c(c1)OC(F)(F)O2 reported_value="39.8 to 100 nM"
molecule=Cc1cc2c(cc1C)N(CC(=O)Nc1ccc(C(F)(F)F)cc1)C(=O)Cc1ccc(Cl)nc1-2 reported_value="100 to 501 nM"
molecule="COc1cc2c(c(OC)n1)-c1cccnc1C(C)C(=O)N2CC(=O)Nc1ccc(C(F)(F)F)cn1 (single isomer, unassigned)" reported_value="39.8 to 100 nM"
molecule=O=C(CN1C(=O)Cc2ccccc2-c2cnccc21)Nc1ccc(C(F)(F)F)cc1 reported_value="100 to 501 nM"
molecule="Cc1cc2c(c(Cl)n1)-c1cncnc1C(C)C(=O)N2CC(=O)Nc1ccc(Cl)c(F)c1 (single isomer, unassigned)" reported_value="< 15.8 nM"
molecule="Cc1cc2c(c(C(F)F)n1)-c1cccnc1C(C)C(=O)N2CC(=O)Nc1ccc(Cl)c(F)c1 (single isomer, unassigned)" reported_value="15.8 to 39.8 nM"
molecule=Cc1cc2c(n(C)c1=O)-c1ccccc1N(C)C(=O)N2CC(=O)Nc1ccc(Cl)c(F)c1 reported_value="15.8 to 39.8 nM"
